# System: Bowes
# Assay Overview: drug sensitivity score (DSS) (DSS (unitless, 0-50 scale)); higher = more sensitive (stronger viability inhibition); extreme values may be limits of the assay
# Applied Conditions: 72 h; culture: 2D
Entries are sorted into classes by drug sensitivity score as follows: lower segment = under 0.1, middle segment = from 0.1 up to 4, upper segment = 4 and over

Which drug sensitivity score category applies to `CN(C)C(=O)c1ccc(S(=O)(=O)c2ccc(NC(=O)[C@@](C)(O)C(F)(F)F)c(Cl)c2)cc1` here?
middle segment

Which drug sensitivity score category applies to `Nc1cc(F)ccc1NC(=O)/C=C/c1cnn(C/C=C/c2ccccc2)c1` here?
middle segment

Which drug sensitivity score category applies to CC1CCC(n2c3cnccc3c3cnc(Nc4ccc5c(n4)CCN(C(=O)CO)C5)nc32)CC1 (stereo unspecified) here?
lower segment

Which drug sensitivity score category applies to `CCS(=O)(=O)c1cccc(-c2cc(C(=O)NC3CCN(C)CC3)c(C)c3[nH]c4ncc(C)cc4c23)c1` here?
upper segment

Which drug sensitivity score category applies to `O=C(c1cccc(Cl)c1F)N1CCN(Cc2cccc(Nc3nccs3)n2)CC1` here?
upper segment

Which drug sensitivity score category applies to `Cn1c(=O)n(-c2ccc(C(C)(C)C#N)cc2)c2c3cc(-c4cnc5ccccc5c4)ccc3ncc21` here?
upper segment

Which drug sensitivity score category applies to `NCCNc1ccc(NCCN)c2c1C(=O)c1ccncc1C2=O` here?
upper segment

Which drug sensitivity score category applies to `CO[C@@H]1[C@H](N(C)C(=O)c2ccccc2)C[C@H]2O[C@]1(C)n1c3ccccc3c3c4c(c5c6ccccc6n2c5c31)C(=O)NC4` here?
upper segment

Which drug sensitivity score category applies to `Cn1cnc2c(F)c(Nc3ccc(Br)cc3F)c(C(=O)NOCCO)cc21` here?
lower segment

Which drug sensitivity score category applies to `Cc1cnc(NC(=O)Nc2cc(Br)c(C)cc2OC[C@@H]2CNCCO2)cn1` here?
middle segment

Which drug sensitivity score category applies to `CN1CCN(c2nc(C3=C(c4c[nH]c5ccccc45)C(=O)NC3=O)c3ccccc3n2)CC1` here?
lower segment

Which drug sensitivity score category applies to `CC(C)(O)CNc1nc(Nc2ccnc(C(F)(F)F)c2)nc(-c2cccc(C(F)(F)F)n2)n1` here?
lower segment

Which drug sensitivity score category applies to `Cc1ccc(-c2cc(C(F)(F)F)nn2-c2ccc(S(N)(=O)=O)cc2)cc1` here?
lower segment

###

Consider the following compounds; for each one, report its drug sensitivity score.
# System: FM-MEL-6
# Assay Overview: drug sensitivity score (DSS) (DSS (unitless)); higher = more sensitive
# Applied Conditions: 72 h; culture: 2D
Respond numerically, and do not add a unit to the figure.

Using known records, supply drug sensitivity score for CC(C)Nc1cc(-c2c[nH]c(C(=O)N[C@H](CO)c3cccc(Cl)c3)c2)c(Cl)cn1 [Ulixertinib]
8.1

Using known records, supply drug sensitivity score for COc1ncc(-c2ccc3nccc(-c4ccnnc4)c3c2)cc1NS(=O)(=O)c1ccc(F)cc1F [Omipalisib]
14.9

Using known records, supply drug sensitivity score for O=C(c1ccc(F)c(F)c1Nc1ccc(I)cc1F)N1CC(O)([C@@H]2CCCCN2)C1 [Cobimetinib]
10.4

Using known records, supply drug sensitivity score for Cn1cnc2c(F)c(Nc3ccc(Br)cc3Cl)c(C(=O)NOCCO)cc21 [Selumetinib]
16.3

###

# Tested on: FM-MEL-6
# Assay Overview: drug sensitivity score (DSS) (DSS (unitless, 0-50 scale)); higher = more sensitive (stronger viability inhibition); extreme values may be limits of the assay
# Applied Conditions: 72 h; culture: 2D
Consider the following compounds; for each one, report its drug sensitivity score.
Respond numerically, and do not add a unit to the figure.

Using known records, supply drug sensitivity score for `Nc1nc2cc(-c3ccc4ncc(C(=O)N5CCOCC5)n4c3)ccc2o1`
0

Using known records, supply drug sensitivity score for `Cn1cc(-c2ccc(F)c(C(F)(F)F)c2)nc1C1CCN(c2ncnc3[nH]ncc23)CC1`
0

Using known records, supply drug sensitivity score for CC/C(=C(\c1ccc(O)cc1)c1ccc(OCCN(C)C)cc1)c1ccccc1 [4-hydroxytamoxifen]
7.8

Using known records, supply drug sensitivity score for `C[C@H]1C[C@@H]2[C@H]([C@@H](O)C[C@@]3(C)[C@H]2CC[C@]3(O)C(=O)CO)[C@@]2(C)C=CC(=O)C=C12`
0
